# photoluminescence quantum yield values compiled below
# Assay Notes: photoluminescence quantum yield (fraction); solvent given as SMILES
# Condition Info: in c1ccccc1
Please reply with the number alone, leaving off any unit.

Cc1ccc(-c2ccc(/C=C/c3cccn3C)cn2)nc1 : 0.25

Lookup result for `Nc1cccc2c1C(=O)c1ccccc1-2` ; measured photoluminescence quantum yield: 0.055

* * *

# Assay Notes: photoluminescence quantum yield (fraction); solvent given as SMILES
# Condition Info: in ClCCl
Measurement Type: photoluminescence quantum yield
Hey, just send me the number, nothing else.

What the record says about `COc1ccc(-c2cn3ccc[n+]3[n-]2)cc1` : photoluminescence quantum yield is 0.062

photoluminescence quantum yield reading for `CCn1c2ccccc2c2cc(C#Cc3cc(C#Cc4ccc5c(c4)c4ccccc4n5CC)nc(N4CCCCC4)n3)ccc21` : 0.2

photoluminescence quantum yield in this record for `c1ccc2cc(-c3c4ccccc4c(-c4nccc5ccccc45)c4ccccc34)ccc2c1` : 0.57

Record `Cc1ccc(/C2=C3N=C(C(c4ccccc4)=C/3c3ccccc3)/C(c3ccc(C)cc3)=c3\[nH]/c(c(-c4ccccc4)c3-c3ccccc3)=C(/c3ccc(C)cc3)C3=N/C(=C(/c4ccc(C)cc4)c4[nH]c2c(-c2ccccc2)c4-c2ccccc2)C(c2ccccc2)=C3c2ccccc2)cc1` , field photoluminescence quantum yield: 0.008

compound CCCCC(CC)COc1cc(OCC(CC)CCCC)c2c#cc3ccc4sc5ccc(c#cc6cc(c#cc7ccc8sc9ccc(c#cc1c2)cc9c8c7)c(C(CCCC)OCCC)cc6C(CCCC)OCCC)cc5c4c3 (stereo not drawn) , photoluminescence quantum yield observed: 0.22

Form: compound = `CCCCCCCCCCCCN1C(=O)c2c(c3ccc4cc(-c5cccs5)c(OC)cc4c3c3c2ccc2cc(-c4cccs4)c(OC)cc23)C1=O` ; photoluminescence quantum yield = 0.216

Reported photoluminescence quantum yield for `CN(C)c1ccc(-c2cc(-c3ccc(N(C)C)cc3)ncn2)cc1` was 0.72

The measured photoluminescence quantum yield associated with `c1ccc(-c2c3ccccc3c(-c3ncccn3)c3ccccc23)cc1` reads 0.16

* * *

This section presents compounds with their documented photoluminescence quantum yield values.
# Assay Notes: photoluminescence quantum yield (fraction); solvent given as SMILES
# Condition Info: in CCCCCCC

// worked examples, photoluminescence quantum yield included
O=[N+]([O-])c1ccc(/C=C/c2c[nH]c3ccccc23)cc1 : 0.051
c1ccc2c3c(ccc2c1)-c1c2ccccc2cc2cccc-3c12 : 0.00088
C(/C=C/c1ccc(N(c2ccccc2)c2ccccc2)cc1)=C\c1ccncc1 : 0.4
Cc1nn(-c2ccccc2)c(C2=NN(c3ccc(Br)cc3)[C@@H](c3ccccc3)[C@@H]2c2ccccc2)c1C#N : 0.43
O=[N+]([O-])c1ccc(/C=C/c2cn(S(=O)(=O)c3ccccc3)c3ccccc23)cc1 : 0.004
CC(C)CCC[C@@H](C)[C@H]1CC[C@H]2[C@@H]3CC=C4C[C@@H](OC(=O)Oc5cc(/C=C/c6ccc(N(C)C)cc6)ccc5[N+](=O)[O-])CC[C@]4(C)[C@H]3CC[C@]12C : 0.29

`CN(C)c1ccc(/C=C/C=C/c2ccc([N+](=O)[O-])c(O)c2)cc1` has a reported photoluminescence quantum yield of 0.1

The measured photoluminescence quantum yield associated with `CCC(=O)c1ccc2cc(N(C)C)ccc2c1` reads 0.019

Lookup result for `c1cc2c3c(cccc3c1)-c1cc3c(ccc4ccccc43)cc1-2` ; measured photoluminescence quantum yield: 0.65

* * *

# Assay Notes: photoluminescence quantum yield (fraction); solvent given as SMILES
# Condition Info: in CCCCCC
Recorded photoluminescence quantum yield by entry
Just the number, please, no unit after it.

Past entries and their recorded results:
CC1=[N+]2C(=C(c3ccccc3)c3c4c5ccccc5c5ccccc5c4c(C)n3[B-]2(F)F)c2c1c1ccccc1c1ccccc21 : 0.94
c1ccc2c(c1)cc(-c1cc(-c3nccs3)nc(-c3nccs3)c1)c1ccccc12 : 0.142
CC(C)c1ccc2ccc3cccc4ccc1c2c34 : 0.21
CCC1=C(C)C2=C(c3c(C)cc(C)nc3-c3cccs3)c3c(C)c(CC)c(C)n3[B-](F)(F)[N+]2=C1C : 0.52
Cc1cc(C)n2c1C=C1c3ccccc3C(c3cccn3C)=[N+]1[B-]2(F)F : 0.96

response.value for `CCN(CC)c1ccc(-n2c(C)ccc2C)cc1` (field: photoluminescence quantum yield) = 0.17

Record `CCOC(=O)COc1ccc(/C=C/C2=C3c4ccccc4C(c4ccc[nH]4)=[N+]3[B-](F)(F)n3ccc(C)c32)cc1` . Reported photoluminescence quantum yield: 0.009

Item: `CC1=CC(C)=[N+]2C1=C(c1ccc(N(C)C)cc1)c1c(C)cc(C)n1[B-]2(F)F` | photoluminescence quantum yield: 0.441

Field photoluminescence quantum yield (entry `F[B-]1(F)n2c(c3cccc4cccc2c43)=Nc2ccc3ccccc3[n+]21` ) reads 0.63

* * *

# Assay Notes: photoluminescence quantum yield (fraction); solvent given as SMILES
# Condition Info: in CC#N
Below: a set of entries, each annotated with reported photoluminescence quantum yield.
Please reply with the value in numeric form only.

Cc1cc(C)n2c1C=C1c3ccccc3C(c3cccn3C)=[N+]1[B-]2(F)F : 0.97
Cc1ccc(-n2c3ccccc3c3cc(C(=C(C#N)C#N)c4ccccc4)ccc32)cc1 : 0.07
Nc1ccc2c(c1)C(=O)c1ccc(N)cc1C2=O : 0.016

The compound listed as `CCNc1cc2c(cc1C)C(c1ccccc1C(=O)O)=C1CCCC(/C=C/C3=[N+](C)c4ccc5ccccc5c4C3(C)C)=C1O2` has a reported photoluminescence quantum yield of 0.22

`CCOC(=O)c1c2c3c(ccc(Br)c3c3cc4ccccc4cc13)N(C)C2=O` yielded photoluminescence quantum yield of 0.45

* * *

# Assay Notes: photoluminescence quantum yield (fraction); solvent given as SMILES
# Condition Info: in ClCCl
Measurement Type: photoluminescence quantum yield
Please reply with the value in numeric form only.

CCN(CC)/C(C)=N\c1ccc2c3c(cccc13)C(=O)c1ccccc1-2 : 0.5
CCCCCCOc1cc(/C=C/c2cc(OCCCCCC)c(/C=C/c3cc(OCCCCCC)c(C=O)cc3OCCCCCC)cc2OCCCCCC)c(OCCCCCC)cc1C=O : 0.52
C(S/C=C/c1ccc(/C=C/SC=C(c2ccccc2)c2ccccc2)cc1)=C(c1ccccc1)c1ccccc1 : 0.058

Short answer for `CCCCN(CCCC)c1ccc(C#Cc2cc(C#Cc3ccc(N(CCCC)CCCC)cc3)c(C#Cc3ccc(C(F)(F)F)cc3)cc2C#Cc2ccc(C(F)(F)F)cc2)cc1` : photoluminescence quantum yield was 0.38

For reference, reported photoluminescence quantum yield for `Brc1ccc(/C=C/c2cnc3ccccc3n2)cc1` stands at 0.02

Note to self: photoluminescence quantum yield recorded for `CC(=O)O[B-]1(OC(C)=O)OC(/C=C/c2cccc3ccccc23)=CC(/C=C/c2cccc3ccccc23)=[O+]1` was 0.64

Input `COc1ccc(-c2c3ccccc3c(C#Cc3ccccc3)c3ccccc23)cc1` . Output photoluminescence quantum yield: 0.51

Reported photoluminescence quantum yield ( `Oc1ccc2ccccc2c1-c1nc(-c2ccccc2)c2ccccn12` ) = 0.136

* * *

# Assay Notes: photoluminescence quantum yield (fraction); solvent given as SMILES
# Condition Info: in Cc1ccccc1
Each record is given true (1) if its reported photoluminescence quantum yield is strictly below 0.4. Records at or above 0.4 are given false (0).

The examples below pair each entry with its known result.
CCCCC(CC)CN1C(=O)C2=C(c3ccc(-c4ccc(C5=C6C(C)=CC(C)=[N+]6[B-](F)(F)n6c(C)cc(C)c65)cc4)s3)N(CC(CC)CCCC)C(=O)C2=C1c1ccc(-c2ccc(C3=C4C(C)=CC(C)=[N+]4[B-](F)(F)n4c(C)cc(C)c43)cc2)s1 (stereo not given) : false (0)
CCCC1=Cc2nc1ccc1[nH]c(cc1CCOC)c1nc(ccc3[nH]c2cc3CCC)C(CCOC)=C1 : false (0)
c1cc2cc(c1)c1ccc3ccc4ccc(cc4c3c1)c1ccc3ccc4ccc(cc4c3c1)c1cccc2c1 : false (0)
CCCCCCN(CCCCCC)c1ccc(C#Cc2ccc(/C=C/c3ccc(-c4ccc(/C=C/c5ccc(C#Cc6ccc(N(CCCCCC)CCCCCC)cc6)cc5)cc4)cc3)cc2)cc1 : false (0)
CCCCCCCCCC1(CCCCCCCCC)c2cc(C#Cc3ccc(C#Cc4ccc(N(CCCCCC)CCCCCC)cc4)cc3)ccc2-c2ccc(C#Cc3ccc(C#Cc4ccc(N(CCCCCC)CCCCCC)cc4)cc3)cc21 : false (0)

Ask | hey, is photoluminescence quantum yield for `N#Cc1cc(-c2ccc(N3c4ccccc4Oc4ccccc43)cc2)c(-c2ccc(N3c4ccccc4Oc4ccccc43)cc2)cc1C#N` lower than 0.4 or not?
Reply | false (0)

Ask | Given `COc1ccc(-c2c3ccccc3c3n2[B-](F)(F)[N+]2=Cc4c5ccccc5c(-c5ccc(OC)cc5)n4[B-](F)(F)[N+]2=C3)cc1` , is recorded photoluminescence quantum yield strictly lower than 0.4?
Reply | true (1)

Ask | Consider the molecule `O=C1/C(=C/C=C/c2cc3c4c(c2)CCCN4CCC3)CC/C1=C\C=C\c1cc2c3c(c1)CCCN3CCC2` . Is its photoluminescence quantum yield strictly less than 0.4?
Reply | true (1)

Ask | Input `CC1(C)c2cccc(-c3nc(-c4ccccc4)nc(-c4ccccc4)n3)c2Oc2c(-n3c4ccccc4c4ccccc43)cccc21` ; condition: photoluminescence quantum yield strictly below 0.4. Does it hold?
Reply | true (1)

Ask | Quick check: does `CC(C)(C)c1ccc(-c2c3ccccc3c3n2[B-](F)(F)[N+]2=Cc4c5ccccc5c(-c5ccc(C(C)(C)C)cc5)n4[B-](F)(F)[N+]2=C3)cc1` have photoluminescence quantum yield under 0.4?
Reply | true (1)

Ask | Given CCCCC(CC)CN1C(=O)c2cccc3c(C#Cc4ccc(N(c5ccc(C#Cc6ccc7c8c(cccc68)C(=O)N(CC(CC)CCCC)C7=O)cc5)c5ccc(C#Cc6ccc7c8c(cccc68)C(=O)N(CC(CC)CCCC)C7=O)cc5)cc4)ccc(c23)C1=O (stereo not given) , is recorded photoluminescence quantum yield strictly lower than 0.4?
Reply | true (1)
